Molecular target: CCK-1 receptors (Rattus norvegicus)
Construct: The pancreatic acini obtained from the outbred male rat pancreas of the Sprague Dawley strain; from tissue; host or cells: isolated pancreatic acini of male Sprague Dawley rats
Sequence (P30551 whole entry): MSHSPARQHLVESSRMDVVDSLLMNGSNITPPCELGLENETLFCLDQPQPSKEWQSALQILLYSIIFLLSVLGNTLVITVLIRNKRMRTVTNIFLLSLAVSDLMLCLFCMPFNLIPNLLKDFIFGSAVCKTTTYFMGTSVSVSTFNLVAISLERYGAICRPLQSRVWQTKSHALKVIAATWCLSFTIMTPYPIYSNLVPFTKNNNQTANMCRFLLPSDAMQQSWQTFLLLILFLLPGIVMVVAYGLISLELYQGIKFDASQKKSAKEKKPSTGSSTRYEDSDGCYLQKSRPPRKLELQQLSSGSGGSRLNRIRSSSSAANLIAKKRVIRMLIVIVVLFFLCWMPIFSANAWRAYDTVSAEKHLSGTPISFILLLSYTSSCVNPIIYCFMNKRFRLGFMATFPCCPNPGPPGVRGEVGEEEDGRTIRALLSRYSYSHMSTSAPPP
Test: Inhibition of binding of [125I]-BH-CCK-8 to isolated rat pancreatic acini
Conditions: 30 minutes at 37° C.; at least 3 experiments; read-out: IC50, inhibition of binding of [125I]-BH-CCK-8 to isolated rat pancreatic acini
Each entry below lists one item and its recorded pIC50 value.
A value of pIC50 is the negative decimal logarithm of a concentration given in moles per litre.

# input Returns the measured pIC50 for the input compound. Input: CCCCC(NC(=O)c1ccccc1NC(=O)c1cc2ccccc2n1C)C(=O)O (stereo not drawn)
# output 6.77

# input What do you get for Cc1ccccc1CC(NC(=O)c1ccccc1NC(=O)c1cc2ccccc2[nH]1)C(=O)O (stereo not drawn) ?
# output 6.80

# input What do you get for O=C(Nc1ccccc1C(=O)N[C@@H](CCc1ccccc1)C(=O)O)c1cc2ccccc2[nH]1 ?
# output 6.72
